- Tested System: Lysine-specific demethylase 4A (Homo sapiens) (UniProt O75164)
- Sequence (O75164 whole entry, looked up, the tested form may be a part): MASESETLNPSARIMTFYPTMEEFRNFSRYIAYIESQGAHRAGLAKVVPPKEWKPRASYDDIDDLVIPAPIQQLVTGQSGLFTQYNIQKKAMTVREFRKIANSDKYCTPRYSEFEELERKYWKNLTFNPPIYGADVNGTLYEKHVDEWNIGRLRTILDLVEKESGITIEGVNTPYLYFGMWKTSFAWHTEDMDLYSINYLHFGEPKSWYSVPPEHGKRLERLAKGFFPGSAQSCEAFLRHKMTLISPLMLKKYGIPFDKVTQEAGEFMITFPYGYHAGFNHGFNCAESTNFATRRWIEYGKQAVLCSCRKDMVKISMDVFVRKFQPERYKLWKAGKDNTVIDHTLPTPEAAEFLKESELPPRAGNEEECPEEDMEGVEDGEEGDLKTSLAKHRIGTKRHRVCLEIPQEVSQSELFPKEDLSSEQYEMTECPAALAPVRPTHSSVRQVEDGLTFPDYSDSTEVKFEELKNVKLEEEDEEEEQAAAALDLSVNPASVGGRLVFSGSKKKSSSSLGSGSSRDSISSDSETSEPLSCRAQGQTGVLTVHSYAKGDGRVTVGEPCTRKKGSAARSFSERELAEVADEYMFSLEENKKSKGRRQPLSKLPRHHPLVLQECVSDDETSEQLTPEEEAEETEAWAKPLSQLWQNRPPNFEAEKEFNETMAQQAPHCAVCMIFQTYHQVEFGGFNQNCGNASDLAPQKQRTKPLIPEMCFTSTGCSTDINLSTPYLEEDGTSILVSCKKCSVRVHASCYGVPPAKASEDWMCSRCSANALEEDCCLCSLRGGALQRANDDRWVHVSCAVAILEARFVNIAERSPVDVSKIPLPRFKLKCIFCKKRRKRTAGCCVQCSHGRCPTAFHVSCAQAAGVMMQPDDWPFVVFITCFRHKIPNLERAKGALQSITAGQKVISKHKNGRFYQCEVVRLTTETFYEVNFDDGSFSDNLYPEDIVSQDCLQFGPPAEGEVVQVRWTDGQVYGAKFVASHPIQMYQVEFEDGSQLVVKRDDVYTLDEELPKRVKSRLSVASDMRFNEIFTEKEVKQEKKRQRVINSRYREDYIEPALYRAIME
- Assay Comment: qHTS Assay for Inhibitors of JMJD2A-Tudor Domain; also: nearly all actives have a fitted effect of over 50% in size
- Condition Details: AlphaScreen JMJD2A-Tudor / H3K4me3 peptide binding; series mostly up to 114 µM
The whole screen tested about 390,000 compounds, of which about 17,000 (4.4%) were called active. Inconclusive results (about 8%) are left out. Calls follow the shape of the dose curve; as a rule, active = well fitted inhibition curve with a large enough effect; inconclusive = small, poorly fitted or top-dose-only effect; inactive = no such curve, though single readings can be large or run the other way. The sample holds actives, similar compounds and a random draw of the others, so the mix is not that of the screen.
Give your call using only these classes: active, inactive

Use these answered entries as a reference point.
CCOC(=O)c1c(C)oc2nc(C)nc(N3CCN(c4ccc(OC)cc4)CC3)c12 :: active
CCOC(=O)c1c(C)oc2nc(C)nc(Nc3ccc(CC)cc3)c12 :: inactive
COc1ccc(N2CCN(C(=O)c3c(C)oc4nc(C)nc(N5CCCC5)c34)CC2)cc1 :: inactive
COC(=O)c1cc2occc2n1Cc1nc(-c2ccc(C)cc2)oc1C :: inactive

Query compound follows.
# input // return assay outcome for Cc1cccc(C(C)C)c1NC(=O)C(NS(=O)(=O)c1cccc2nsnc12)c1ccccc1 (stereo not given)
# output inactive

====

- Tested System: Lysine-specific demethylase 4A (Homo sapiens)
- Assay Comment: qHTS Assay for Inhibitors of JMJD2A-Tudor Domain; also: nearly all actives have a fitted effect of over 50% in size; also: potency is read from the fitted curve at half-maximal effect
- Condition Details: AlphaScreen JMJD2A-Tudor / H3K4me3 peptide binding; series mostly up to 114 µM
About 17,000 (4.4%) of roughly 390,000 compounds were called active. Another 8% or so got no clear call; they are omitted. Only a selection was taken, and actives are over-represented in it overall.
Outcome Measure: Potency

Worked set:
CCc1nnc(NC(=O)C2CC(=O)N(c3ccc4c(c3)OCCO4)C2)s1 (stereo not given) :: 25.1 µM (active)
CC(=O)c1ccccc1NC(=O)C1CC(=O)N(c2ccc3c(c2)OCCO3)C1 (stereo not given) :: inactive
Cc1cccc(NC(=O)Cn2cc(S(=O)(=O)Cc3ccccc3Cl)c3ccccc32)c1 :: inactive
CCOC(=O)c1ccc(NC(=O)C2CC(=O)N(c3ccc4c(c3)OCCO4)C2)cc1 (stereo not given) :: inactive

Pending compound:
# input Which Potency reading was recorded for the compound `Cc1ccc(-n2ncc3c(N4CCC(C(N)=O)CC4)ncnc32)cc1` ?
# output inactive

====

- Tested System: Lysine-specific demethylase 4A (Homo sapiens) (UniProt O75164)
- Assay Comment: qHTS Assay for Inhibitors of JMJD2A-Tudor Domain; also: nearly all actives have a fitted effect of over 50% in size
- Condition Details: AlphaScreen JMJD2A-Tudor / H3K4me3 peptide binding; series mostly up to 114 µM
The whole screen tested about 390,000 compounds, of which about 17,000 (4.4%) were called active. Roughly 8% stayed inconclusive and do not appear here. Calls come from the whole dose curve; as a rule, active = well fitted inhibition curve with a large enough effect; inconclusive = small, poorly fitted or top-dose-only effect; inactive = no such curve, though single readings can be large or run the other way. The entries come from a sample that favours actives as a whole.
Return exactly one item of active, inactive

Answered cases to consult:
CN(CC#CCC(c1ccccc1)c1ccccc1)C(C)(C)C :: inactive
O=S(=O)(O)c1cc2onnc2c2ccccc12 :: active

# input Hello, I am checking results. What call was entered for `COC(=O)c1ccccc1S(=O)(=O)Nc1ccc(OC)cc1` ?
# output inactive

# input Now give it for `O=C(CSc1ncc(-c2ccccc2)[nH]1)Nc1ccc(F)cc1F` too.
# output inactive

# input What about `CN(C)c1ccc(CSc2ccccc2)cc1` ?
# output active

# input Next entry: `Cc1ccc(NC(=O)CNCc2ccccn2)cc1S(=O)(=O)N(C)C`
# output active

# input Repeat with CC(CN1CCCCC1)c1ccccc1 (stereo not drawn)
# output active
